All values here come from paper doi:10.1101/2024.10.09.24315180v1.

Protein target, amino acids: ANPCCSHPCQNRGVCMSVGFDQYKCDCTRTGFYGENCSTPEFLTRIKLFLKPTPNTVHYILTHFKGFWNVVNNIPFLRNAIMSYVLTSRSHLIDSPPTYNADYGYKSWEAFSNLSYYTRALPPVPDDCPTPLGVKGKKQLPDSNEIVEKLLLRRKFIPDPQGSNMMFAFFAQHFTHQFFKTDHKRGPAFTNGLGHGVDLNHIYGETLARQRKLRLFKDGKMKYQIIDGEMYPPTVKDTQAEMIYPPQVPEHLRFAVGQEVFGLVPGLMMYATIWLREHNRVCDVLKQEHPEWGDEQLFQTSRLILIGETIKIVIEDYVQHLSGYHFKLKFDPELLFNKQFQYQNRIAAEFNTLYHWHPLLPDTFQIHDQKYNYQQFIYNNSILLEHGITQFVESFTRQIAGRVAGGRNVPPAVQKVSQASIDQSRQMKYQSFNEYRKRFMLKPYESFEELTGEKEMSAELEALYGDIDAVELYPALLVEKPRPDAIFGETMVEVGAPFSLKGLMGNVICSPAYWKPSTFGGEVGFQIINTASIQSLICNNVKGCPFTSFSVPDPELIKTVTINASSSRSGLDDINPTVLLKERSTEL
Property name: pKd
Notebook: values listed as pKd are -log10 of the concentration (mol/L).

Requested field: pKd. Item: "COc1cc2c(c(OC)c1OC)-c1c(cc(OC)c(OC)c1OC)C[C@H](C)[C@H](C)C2"
4.83
